Values compiled from paper PMC6376031.

# Assay method text: in vitro
# Type: in vitro ADME
# Test conditions: mouse, plasma
Property label: half-life (min)
Reply numerically in min, unit not repeated.

## Task Find the recorded half-life belonging to Ac-LLLLRVKR-NH2 [ML, reference compound] and report it.
## Result 7.8

====

# Assay method text: in vitro
# Format: in vitro ADME
# Test conditions: mouse, plasma
Where a SMILES comes first, the peptide text is derived from it.
Property label: half-life (h)
Reply numerically in h, unit not repeated.

## Task Find the recorded half-life belonging to CC(=O)N[C@H](CC(C)C)C(=O)N[C@@H](CC(C)C)C(=O)N[C@@H](CC(C)C)C(=O)N[C@@H](CC(C)C)C(=O)N[C@@H](CCCNC(=N)N)C(=O)N[C@H](C(=O)N[C@@H](CCCCN)C(=O)NCc1ccc(C(=N)N)cc1)C(C)C [C23, Ac-[DLeu]LLLRVK-amidinobenzylamide] (HELM PEPTIDE1{[ac].[dL].L.L.L.R.V.K.[N=C(N)c1ccc(CN[*:1])cc1]}$$$$V2.0) and report it.
## Result 1.74
